- measuredTarget: T1, human soluble urokinase plasminogen activator receptor (suPAR) (human, UniProt Q03405 23-303, limits assumed)
- T1 construct: Target antigen of the scFv off-rate screen; also called hsuPAR; human suPAR
- T1 sequence (Q03405 23-303 limits assumed): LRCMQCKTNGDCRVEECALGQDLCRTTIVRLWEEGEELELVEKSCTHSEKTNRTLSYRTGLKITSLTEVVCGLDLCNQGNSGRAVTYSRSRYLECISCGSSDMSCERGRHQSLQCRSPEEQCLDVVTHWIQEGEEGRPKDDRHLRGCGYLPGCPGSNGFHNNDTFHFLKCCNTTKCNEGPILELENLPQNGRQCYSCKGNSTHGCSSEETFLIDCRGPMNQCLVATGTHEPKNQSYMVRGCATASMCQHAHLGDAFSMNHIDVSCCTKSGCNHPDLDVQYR
- procedureDetails: BLI (Octet) off-rate screen of scFv clones
measuredQuantity: koff (s⁻¹)
Value expressed in s⁻¹; do not type the unit.

(Q) Recorded koff for suPAR_DB06_C07 (scFv, V domains shown) VH: QVQLVQSGAEVKKPGASVKVSCKASGYTFTNYYMHWVRQAPGQGLEWMGWIDPNGGGTQYAQKFQGRVTMTRDTSTSTVYMELSSLRSEDTAVYYCARGYDVDWFVYWGQGTLVTVSS VL: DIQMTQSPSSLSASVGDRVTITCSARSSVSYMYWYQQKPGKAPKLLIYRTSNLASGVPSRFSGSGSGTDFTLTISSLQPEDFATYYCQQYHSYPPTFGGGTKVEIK , please?
(A) 0.00495

(Q) Try this binder next: suPAR_DB06_D02 (scFv, V domains shown) VH: QVQLVQSGAEVKKPGASVKVSCKASGYTFTSNYMHWVRQAPGQGLEWMGWIDHENGNTIYDQKFQGRVTMTRDTSTSTVYMELSSLRSEDTAVYYCARGYDVDWFVYWGQGTLVTVSS VL: DIQMTQSPSSLSASVGDRVTITCSASSSVSYMYWYQQKPGKAPKLLIYRTSNLASGVPSRFSGSGSGTDFTLTISSLQPEDFATYYCQQYHSYPPTFGGGTKVEIK
(A) 0.00422

(Q) Try this binder next: suPAR_DB06_E05 (scFv, V domains shown) VH: QVQLVQSGAEVKKPGASVKVSCKASGYTFTSHYIQWVRQAPGQGLEWMGWIDHENGNTIYDQKFQGRVTMTRDTSTSTVYMELSSLRSEDTAVYYCARGTDVDWFVYWGQGTLVTVSS VL: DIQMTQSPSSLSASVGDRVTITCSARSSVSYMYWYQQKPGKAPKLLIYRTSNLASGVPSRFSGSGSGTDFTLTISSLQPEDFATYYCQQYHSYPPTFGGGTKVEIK
(A) 0.00315

(Q) Try this binder next: suPAR_DB06_E09 (scFv, V domains shown) VH: QVQLVQSGAEVKKPGASVKVSCKASGHTFTNYYVHWVRQAPGQGLEWMGWIDHENGSTSYDQKFQGRVTMTRDTSTSTVYMELSSLRSEDTAVYYCARGYDVDWFVYWGQGTLVTVSS VL: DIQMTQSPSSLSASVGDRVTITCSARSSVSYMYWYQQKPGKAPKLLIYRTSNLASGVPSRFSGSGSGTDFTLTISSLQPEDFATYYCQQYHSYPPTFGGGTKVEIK
(A) 0.00316

(Q) Try this binder next: suPAR_DB06_C06 (scFv, V domains shown) VH: QVQLVQSGAEVKKPGASVKVSCKASGYTFSNYYMHWVRQAPGQGLEWMGWIDHEGGNTSYAQKFQGRVTMTRDTSTSTVYMELSSLRSEDTAVYYCARGYDVDWFVYWGQGTLVTVSS VL: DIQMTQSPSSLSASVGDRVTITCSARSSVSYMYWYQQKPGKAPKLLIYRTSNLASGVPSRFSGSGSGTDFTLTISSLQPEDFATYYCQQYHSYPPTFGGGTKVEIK
(A) 0.00311
